Measured Desmid species toxicity accompanies every entry in the list below.
Tested on: Desmid species
Protocol Summary: Algae sensitivity screen, 96 well, growth rate by A750 over 8 days
Assay type: cell-based
Test Conditions: Desmid species
Method: The total volume per well is 200 μl. Each chemical is tested in triplicate.

CCCN(CC)CC1COC2(CCC(C(C)(C)C)CC2)O1 (stereo not drawn) [spiroxamine]	0.250-1.0 ppm
CCC(C)(NC(=O)c1cc(Cl)c(C)c(Cl)c1)C(=O)CCl (stereo not drawn) [zoxamide]	0.0156-0.0625 ppm
CC1(C(=O)Nc2ccc(O)c(Cl)c2Cl)CCCCC1 [fenhexamid]	15.63-62.5 ppm

Ask | Field request: Desmid species toxicity | item: CCCOC/C(=N\c1ccc(Cl)cc1C(F)(F)F)n1ccnc1 [triflumizole]
Reply | 1.563-6.25 ppm

Ask | // next record Cc1ccc(N(SC(F)(Cl)Cl)S(=O)(=O)N(C)C)cc1 [tolylfluanid]
Reply | 6.25-25.0 ppm

Ask | // next record Cc1ccc(-c2c(Cl)nc(C#N)n2S(=O)(=O)N(C)C)cc1 [cyazofamid]
Reply | 0.125-0.500 ppm

###

System: Scenedesmus species
Protocol Summary: Algae sensitivity screen, 96 well, growth rate by A750 over 8 days
Type: cell-based
Test Conditions: log phase culture, 10 fold dilutions, 8 days
Description: The total volume per well is 200 μl. Each chemical is tested in triplicate.
Result Type: Scenedesmus species toxicity

Examples with their reported Scenedesmus species toxicity follow.
O=C(Nc1ccccc1)c1ccccc1I [benodanil, 2-Iodo-N-phenylbenzamide]	0.3125-1.25 ppm
O=C(Nc1ccccc1)N(Cc1ccc(Cl)cc1)C1CCCC1	0.781-3.125 ppm
CCCOC(=O)NCCCN(C)C	3.906-15.63 ppm

Ask | Field request: Scenedesmus species toxicity | item: CCC(C)c1cc([N+](=O)[O-])cc([N+](=O)[O-])c1OC(=O)C=C(C)C (stereo not shown)
Reply | 0.125-0.5 ppm

Ask | // next record CON=C(Cc1cccnc1)c1ccc(Cl)cc1Cl
Reply | 0.039-0.156 ppm

Ask | // next record OC(c1ccc(Cl)cc1)(c1cncnc1)c1ccccc1Cl (stereo not shown)
Reply | 0.0489-0.195 ppm

Ask | // next record CC1CN(C2CCCCCCCCCCC2)CC(C)O1 (stereo not shown)
Reply | 0.195-0.781 ppm

Ask | // next record CNC(=O)/C(=N/OC)c1ccccc1COc1cc(C)ccc1C
Reply | 0.0156-0.0625 ppm

Ask | // next record CC1=C(C(=O)Nc2ccccc2)SCCO1
Reply | 0.244-0.977 ppm

Ask | // next record O=C1C2CC=CCC2C(=O)N1SC(Cl)(Cl)Cl (stereo not shown)
Reply | 31.25-125 ppm

###

Tested on: microalgae
Protocol Summary: Ranges of microalgae toxicity (serial dilution of fungicide in growing culture)
Test Conditions: range in which fungicide begins to show growth effects on microalgae
Excerpt: The present disclosure provides for the introduction of fungicides at an effective concentration. Effective concentrations may be determined according to manufacturer's instructions or may be determined empirically. […] One of skill in the art would understand that different microalgae may have different ranges of toxicity that may be determined by growth of a microalga in the presence of a serial dilution of a fungicide. […]
Measured Ranges of Microalgae toxicity accompanies every entry in the list below.

Examples with their reported Ranges of Microalgae toxicity follow.
COC(=O)N(OC)c1ccccc1COc1ccn(-c2ccc(Cl)cc2)n1 [pyraclostrobin]	>15 ppm
CC1CN(C2CCCCCCCCCCC2)CC(C)O1 (centres unmarked) [dodemorph]	0.195-0.781 ppm

Ask | Field request: Ranges of Microalgae toxicity | item: CCCN(CC)CC1COC2(CCC(C(C)(C)C)CC2)O1 (centres unmarked) [spiroxamine]
Reply | 0.0625-1.0 ppm

Ask | // next record CCC(C)c1cc([N+](=O)[O-])cc([N+](=O)[O-])c1OC(=O)C=C(C)C (centres unmarked) [binapacryl]
Reply | 0.125-0.5 ppm

Ask | // next record O=C(Nc1ccccc1)N(Cc1ccc(Cl)cc1)C1CCCC1 [pencycuron]
Reply | 0.781-12.5 ppm

Ask | // next record CNC(=O)/C(=N/OC)c1ccccc1COc1cc(C)ccc1C [dimoxystrobin]
Reply | 0.004-0.0625 ppm

Ask | // next record N#Cc1sc2c(=O)c3ccccc3c(=O)c=2sc1C#N [dithianon]
Reply | 0.625-2.5 ppm

Ask | // next record O=[N+]([O-])c1cc(C(F)(F)F)c(Cl)c([N+](=O)[O-])c1Nc1ncc(C(F)(F)F)cc1Cl [fluazinam]
Reply | >7.5 ppm

Ask | // next record CCC(C)(NC(=O)c1cc(Cl)c(C)c(Cl)c1)C(=O)CCl (centres unmarked) [zoxamide]
Reply | 0.0156-0.250 ppm

Ask | // next record CCCOC/C(=N\c1ccc(Cl)cc1C(F)(F)F)n1ccnc1 [triflumizole]
Reply | 1.563-6.25 ppm

Ask | // next record Cc1ccc(-c2c(Cl)nc(C#N)n2S(=O)(=O)N(C)C)cc1 [cyazofamid]
Reply | 0.03125-0.125 ppm

Ask | // next record Cc1ccc(N(SC(F)(Cl)Cl)S(=O)(=O)N(C)C)cc1 [tolylfluanid]
Reply | 1.56-25.0 ppm

Ask | // next record CC1=C(C(=O)Nc2ccccc2)SCCO1 [carboxine]
Reply | 0.977-3.906 ppm

Ask | // next record O=C1C2CC=CCC2C(=O)N1SC(Cl)(Cl)Cl (centres unmarked) [captan]
Reply | 1.953-125 ppm

Ask | // next record O=C(Nc1ccccc1)c1ccccc1I [benodanil, 2-Iodo-N-phenylbenzamide]
Reply | 0.3125-1.25 ppm

Ask | // next record CON=C(Cc1cccnc1)c1ccc(Cl)cc1Cl [pyrifenox]
Reply | 0.004-0.156 ppm

Ask | // next record CC1(C(=O)Nc2ccc(O)c(Cl)c2Cl)CCCCC1 [fenhexamid]
Reply | 15.63-62.5 ppm

Ask | // next record OC(c1ccc(Cl)cc1)(c1cncnc1)c1ccccc1Cl (centres unmarked) [fenarimol]
Reply | 0.0489-0.195 ppm

Ask | // next record CC(Cc1ccc(C(C)(C)C)cc1)CN1CCCCC1 (centres unmarked) [fenpropidin]
Reply | 0.00195-1.953 ppm

Ask | // next record CCCOC(=O)NCCCN(C)C [propamocarb]
Reply | 3.906-62.5 ppm

Where do these numbers come from? They come from patent US20140378513A1.
